Below is a list of entries, each paired with its recorded transcriptional activation domain activity value.
- System: Saccharomyces cerevisiae
- TEST_NAME: transcriptional activation domain activity (GFP:mCherry ratio, weighted mean of sorted bins, harmonized to initial dataset scale) (arbitrary fluorescence ratio units); higher = stronger transcriptional activation
- EXPERIMENTAL_SETUP: beta-estradiol 1 µM; induction time 4 h

Example entries begin here.
MFGIGFFSRVLPWLWLWLWLYFFFFFFLYIFCMHYEQFSLSLTYNKLPFSLAL    65900
LIVGGGATGAGTALDAASRGLKVALVERDDFSAGTSSKSTKLVHGGVRYLQKA    51800
PHHKWVVPTPFSSHAFHPVDGWLQSIPYHIFILVFPLHRVLYLVLFVLINFWT    59200
ILGKLLYHMILLYLCVDLSLSEQIEHLSAATHLTMILYRLGGKDFIPTNLYIN    45000

Next up:
Request: Item MVHIVVVLCIVFCLLLCFKRRAQQLSSYCHASLRYFNLPPNFHQYYEQRFILV has what recorded transcriptional activation domain activity?
Response: 78400
